# RUN DESCRIPTION: Microsomal stability assay, human liver microsomes
# EXPERIMENTAL SETUP: both, human, pooled liver microsomes, pH 7.4, Microsomal stability assays: Clearance
Task for the reader: assign each of the following compounds its reported CLint scaled at 0.08 µM.

*Q* Entry FCC(Cc1ccccc1)NCCCc1ccccc1 (stereo not drawn) [Compound 99] has what CLint scaled at 0.08 µM?
*A* 119 mL/min/kg

*Q* Entry COc1ccc(CCCNC(C)Cc2ccncc2)cc1 (stereo not drawn) [Compound 172] has what CLint scaled at 0.08 µM?
*A* 42.9 mL/min/kg

*Q* Entry CC(Cc1ccc(N)cc1)NCCCc1ccccc1 (stereo not drawn) [Compound 105] has what CLint scaled at 0.08 µM?
*A* 29.6 mL/min/kg

*Q* Entry CC(Cc1ccc(F)cc1)NCCCn1cccn1 (stereo not drawn) [Compound 133] has what CLint scaled at 0.08 µM?
*A* < 5.2 mL/min/kg

*Q* Entry CC(Cc1ccc([N+](=O)[O-])cc1)NCCCc1ccc(F)cc1 (stereo not drawn) [Compound 118] has what CLint scaled at 0.08 µM?
*A* < 5.2 mL/min/kg

*Q* Entry CC(Cc1ccc(-c2cccnc2)cc1)NCCCc1ccc(F)cc1 (stereo not drawn) [Compound 193] has what CLint scaled at 0.08 µM?
*A* 144 mL/min/kg

----------
Task for the reader: assign each of the following molecules its reported Ki.
# MEASUREMENT TARGET: VMAT2 (Rattus norvegicus (Rat))
# RUN DESCRIPTION: [3H]Dopamine ([3H]DA) uptake assay, vesicular preparation
# Format: biochemical
# EXPERIMENTAL SETUP: Ki value at VMAT2, text value
Quick note: unit goes after the number.

*Q* Entry COc1ccc(CCCN[C@@H](C)Cc2ccccc2)cc1.Cl [Compound 10] has what Ki?
*A* 25.5 nM

*Q* Entry COc1ccc(CCCN[C@H](C)Cc2ccccc2)cc1.Cl [Compound 9] has what Ki?
*A* 8.71 nM

----------
# MEASUREMENT TARGET: VMAT2 (Rattus norvegicus (Rat), UniProt Q01827)
# EXPERIMENTAL SETUP: rat brain synaptic vesicles; read-out: [3H]DTBZ binding (Ki) VMAT2
READOUT LABEL: Ki (nM)
Write the answer as a number in nM, unit excluded.

*Q* Entry CC(Cc1ccccc1)NCCc1ccc(OCc2ccccc2)c(OCc2ccccc2)c1 (stereo not shown) has what Ki?
*A* 2000

*Q* Entry CC(CCc1ccccc1)NCCc1ccccc1 (stereo not shown) has what Ki?
*A* 1600

*Q* Entry CC(Cc1ccc(O)cc1)NCCCc1ccccc1 (stereo not shown) has what Ki?
*A* 820

*Q* Entry `C[C@H](Cc1ccccc1)NCCCc1ccccc1` has what Ki?
*A* 910

*Q* Entry CC(Cc1ccc(N)cc1)NCCCc1ccccc1 (stereo not shown) has what Ki?
*A* 2800

*Q* Entry CC(CCc1ccccc1)NCCCc1ccccc1 (stereo not shown) has what Ki?
*A* 4810

*Q* Entry CC(Cc1ccc(Br)cc1)NCCOc1ccccc1 (stereo not shown) has what Ki?
*A* 2000

*Q* Entry COc1ccc(CCC(C)NCCc2ccccc2)cc1 (stereo not shown) has what Ki?
*A* 2400

*Q* Entry CC(Cc1ccc([N+](=O)[O-])cc1)NCCc1ccccc1 (stereo not shown) has what Ki?
*A* 5100

*Q* Entry CC(Cc1ccc(Br)cc1)NCCCc1ccccc1 (stereo not shown) has what Ki?
*A* 700

*Q* Entry CC(Cc1ccccc1)NCCCCCc1ccccc1 (stereo not shown) has what Ki?
*A* 630

*Q* Entry CC(Cc1ccc(F)cc1)NCCc1ccccc1 (stereo not shown) has what Ki?
*A* 2500

*Q* Entry COc1ccc(CC(C)NCCCc2ccccc2)cc1OC (stereo not shown) has what Ki?
*A* 3800

*Q* Entry COc1ccc(CCCNC(C)Cc2ccc([N+](=O)[O-])cc2)cc1 (stereo not shown) has what Ki?
*A* 1400

*Q* Entry CC(Cc1ccc(O)cc1)NCCc1ccccc1 (stereo not shown) has what Ki?
*A* 2600

*Q* Entry CC(Cc1ccc([N+](=O)[O-])cc1)NCCCc1ccccc1 (stereo not shown) has what Ki?
*A* 2000

*Q* Entry COc1ccc(CCCNC(C)Cc2ccc(Br)cc2)cc1 (stereo not shown) has what Ki?
*A* 460

*Q* Entry COc1ccc(CC(C)N(C)CCCc2ccccc2)cc1 (stereo not shown) has what Ki?
*A* 7110

*Q* Entry COc1ccc(CCCNC(C)Cc2ccccc2)cc1 (stereo not shown) has what Ki?
*A* 2200

*Q* Entry COc1ccc(CCC(C)NCCc2ccc(Br)cc2)cc1 (stereo not shown) has what Ki?
*A* 870

*Q* Entry CC(Cc1ccccc1)NCCc1ccccc1 (stereo not shown) has what Ki?
*A* 7700

*Q* Entry CC(Cc1ccccc1)NCCOc1ccccc1 (stereo not shown) has what Ki?
*A* 4100

*Q* Entry COc1ccc(CC(C)NCCc2ccccc2)cc1 (stereo not shown) has what Ki?
*A* 3770

*Q* Entry COc1ccc(CCCNC(C)Cc2ccc(OC)cc2)cc1 (stereo not shown) has what Ki?
*A* 410

*Q* Entry CC(Cc1ccccc1)N(C)CCc1ccccc1 (stereo not shown) has what Ki?
*A* 7530

*Q* Entry COc1ccc(CCC(C)NCCCc2ccccc2)cc1 (stereo not shown) has what Ki?
*A* 4700

*Q* Entry CC(Cc1ccccc1)N(C)CCCc1ccccc1 (stereo not shown) has what Ki?
*A* 1560

*Q* Entry CC(CCc1ccccc1)N(C)CCc1ccccc1 (stereo not shown) has what Ki?
*A* 29800

*Q* Entry CC(Cc1ccccc1)NCCc1ccc(O)c(O)c1 (stereo not shown) has what Ki?
*A* 3400

*Q* Entry COc1ccc(CCCNC(C)Cc2ccc(F)cc2)cc1 (stereo not shown) has what Ki?
*A* 1700

*Q* Entry CC(Cc1ccccc1)NCCCCc1ccccc1 (stereo not shown) has what Ki?
*A* 190

*Q* Entry COc1ccc(CCCNC(C)CCc2ccc(OC)cc2)cc1 (stereo not shown) has what Ki?
*A* 1500

*Q* Entry COc1ccc(CCCNC(C)CCc2ccccc2)cc1 (stereo not shown) has what Ki?
*A* 3200

*Q* Entry `C[C@@H](Cc1ccccc1)NCCCc1ccccc1` has what Ki?
*A* 750
